Origin of the recorded values: paper PMC12693182

Tested on: P. aeruginosa 1051575
Experimental Protocol: MIC, broth microdilution
Type: cell-based, Pseudomonas aeruginosa
Details: Pseudomonas aeruginosa, 1051575, 24 h, 24 h
Readout Label: MIC (µg/mL)
API: value field is a number in µg/mL; no unit string.

Summary for this compound, CC(C)OC(=O)CCC(C)C1CCC2C3CCC4CC(NCCCNCCCCN)CCC4(C)C3CCC12C (stereo not drawn) : MIC is 7

The recorded MIC for entry CC(C)OC(=O)CCC(C)C1CCC2C3CCC4CC(NCCCN5CCN(CCCN)CC5)CCC4(C)C3CCC12C (stereo not drawn) equals 8

Sample CC(C)OC(=O)CCC(C)C1CCC2C3C(O)CC4CC(NCCN(CCN)CCN)CCC4(C)C3CC(O)C12C (stereo not drawn) ; MIC observed: 58

In plain terms, CC(C)OC(=O)CCC(C)C1CCC2C3CCC4CC(NCCN(CCN)CCN)CCC4(C)C3CC(O)C12C (stereo not drawn) has a documented MIC of 56

The recorded MIC for COC(=O)CCC(C)C1CCC2C3C(O)CC4CC(NCCCCCCN)CCC4(C)C3CC(O)C12C (stereo not drawn) is 13

// MIC value for CC(C)OC(=O)CCC(C)C1CCC2C3CCC4CC(NCCCNCCCN)CCC4(C)C3CC(O)C12C (stereo not drawn) : 14

* * *

System: S. aureus ATCC 25923
Experimental Protocol: MIC, broth microdilution
Type: cell-based, Staphylococcus aureus
Details: Staphylococcus aureus, ATCC25923, 24 h, ATCC strain
Experimental: Antimicrobial activity of the compounds was studied by determination of minimal inhibitory concentrations (MIC) according to the NCCLS guidelines M7-A2 using the microbroth dilution methods. The bacteria strains were grown on trypticase soy agar (Becton Dickinson) at 37 °C for 24 h. […] Antimicrobial activities of the compounds were determined by using a broth microdilution method performed in sterile 96-well microplates. […]
Please respond with TRUE when measured MIC is strictly beneath 4 µg/mL, and with FALSE in all other cases.

Lookup: Identify whether the compound CC(C)OC(=O)CCC(C)C1CCC2C3CCC4CC(NCCCNCCCCN)CCC4(C)C3CCC12C (centres unmarked) records MIC below 4 µg/mL.
Found: TRUE

Lookup: Is the reported MIC for CC(C)OC(=O)CCC(C)C1CCC2C3C(O)CC4CC(NCCCNCCCCN)CCC4(C)C3CCC12C (centres unmarked) strictly below 4 µg/mL?
Found: FALSE

Lookup: MIC strictly < 4 µg/mL for this compound? CC(C)OC(=O)CCC(C)C1CCC2C3C(O)CC4CC(NCCCNCCCN)CCC4(C)C3CCC12C (centres unmarked)
Found: FALSE

Lookup: Is MIC strictly under 4 µg/mL for the entry COC(=O)CCC(C)C1CCC2C3CCC4CC(NCCCNCCCN)CCC4(C)C3CC(O)C12C (centres unmarked) ?
Found: TRUE

Lookup: Regarding CC(C)OC(=O)CCC(C)C1CCC2C3CCC4CC(NCCN(CCN)CCN)CCC4(C)C3CCC12C (centres unmarked) , kindly confirm whether its MIC is beneath 4 µg/mL.
Found: FALSE

Lookup: In plain terms, does CC[C@H]1OC(=O)[C@H](C)[C@@H](O[C@H]2C[C@@](C)(OC)[C@@H](O)[C@H](C)O2)[C@H](C)[C@@H](O[C@@H]2O[C@H](C)C[C@H](N(C)C)[C@H]2O)[C@](C)(O)C[C@@H](C)C(=O)[C@H](C)[C@@H](O)[C@]1(C)O [Ery, Erythromycine, reference compound] come in under 4 µg/mL for MIC?
Found: TRUE

Lookup: Hello, is MIC of the following compound strictly smaller than 4 µg/mL? CC(C)OC(=O)CCC(C)C1CCC2C3CCC4CC(NCCCN5CCN(CCCN)CC5)CCC4(C)C3CCC12C (centres unmarked)
Found: FALSE

Lookup: Hello, I'm reviewing records and need to know if MIC of CC(C)OC(=O)CCC(C)C1CCC2C3CCC4CC(NCCCNCCCNCCCN)CCC4(C)C3CCC12C (centres unmarked) is below 4 µg/mL. Could you check?
Found: FALSE

Lookup: is_below(MIC, 4 µg/mL) for CC(C)OC(=O)CCC(C)C1CCC2C3C(O)CC4CC(NCCCN5CCN(CCCN)CC5)CCC4(C)C3CCC12C (centres unmarked) ?
Found: FALSE

Lookup: Hi there! Is MIC for COC(=O)CCC(C)C1CCC2C3CCC4CC(NCCCN5CCN(CCCN)CC5)CCC4(C)C3CC(O)C12C (centres unmarked) below 4 µg/mL, do you know?
Found: FALSE

* * *

Tested on: Chinese hamster Ovary cells (CHO-K1)
Experimental Protocol: Cytotoxicity assay (WST-1 / Neutral Red)
Assay type: cell-based
Details: Cricetulus griseus, 24 h, 24-h incubation
Please assign 0 (no) whenever IC50 is at or above 100 µg/mL, and 1 (yes) whenever it is below.

Lookup: Lab note: confirm whether the reported IC50 for this compound is below 100 µg/mL, equality not counting. compound: CC(C)OC(=O)CCC(C)C1CCC2C3CCC4CC(NCCN(CCN)CCN)CCC4(C)C3CC(O)C12C (stereo not shown)
Found: 0 (no)

Lookup: Lab note: IC50 threshold 100 µg/mL. Does this compound come in strictly under it? COC(=O)CCC(C)C1CCC2C3CCC4CC(NCCCN5CCN(CCCN)CC5)CCC4(C)C3CC(O)C12C (stereo not shown)
Found: 0 (no)

Lookup: Below 100 µg/mL on IC50? Entry CC(C)OC(=O)CCC(C)C1CCC2C3C(O)CC4CC(NCCCNCCCCN)CCC4(C)C3CCC12C (stereo not shown)
Found: 1 (yes)

Lookup: Confirm or reject: IC50 of COC(=O)CCC(C)C1CCC2C3C(O)CC4CC(NCCCNCCCNCCCN)CCC4(C)C3CCC12C (stereo not shown) lies strictly below 100 µg/mL
Found: 1 (yes)

Lookup: Lab note: confirm whether the reported IC50 for this compound is below 100 µg/mL, equality not counting. compound: CC(C)OC(=O)CCC(C)C1CCC2C3C(O)CC4CC(NCCCNCCCCNCCCN)CCC4(C)C3CC(O)C12C (stereo not shown)
Found: 1 (yes)

Lookup: Bench note: check whether CCOC(=O)CCC(C)C1CCC2C3CCC4CC(NCCCNCCCCNCCCN)CCC4(C)C3CC(O)C12C (stereo not shown) shows IC50 below 100 µg/mL
Found: 1 (yes)

* * *

Could you please report measured MIC for the items listed next?
System: S. aureus ATCC 25923
Experimental Protocol: MIC, broth microdilution
Format: cell-based, Staphylococcus aureus
Details: Staphylococcus aureus, ATCC25923, 24 h, ATCC strain
Put down the number, then write its unit next to it.

MIC in this record for CC(C)OC(=O)CCC(C)C1CCC2C3CCC4CC(NCCCNCCCNCCCN)CCC4(C)C3CC(O)C12C (stereo not shown) [Claramine A02] : 4 µg/mL

// MIC lookup, molecule = CC(C)OC(=O)CCC(C)C1CCC2C3CCC4CC(NCCCNCCCCNCCCN)CCC4(C)C3CC(O)C12C (stereo not shown) [Claramine A01, 3-Spermino Isopropyl Deoxycholate] , result: 2 µg/mL

Memo: CC(C)OC(=O)CCC(C)C1CCC2C3C(O)CC4CC(NCCN(CCN)CCN)CCC4(C)C3CCC12C (stereo not shown) [Claramine D10] , reported MIC: 28 µg/mL

Just so you know, measured MIC for COC(=O)CCC(C)C1CCC2C3CCC4CC(NCCCNCCCN)CCC4(C)C3CCC12C (stereo not shown) [Claramine E09] came out at 16 µg/mL

* * *

Observed MIC values for E. coli 1956 are listed in what follows.
Write down the numeric answer in µg/mL and omit the unit.

Notebook: CC(C)OC(=O)CCC(C)C1CCC2C3C(O)CC4CC(NCCCNCCCCN)CCC4(C)C3CCC12C (stereo not shown) [Claramine C18] , MIC read as 14

Entry under test: CC(C)OC(=O)CCC(C)C1CCC2C3CCC4CC(NCCCNCCCCNCCCN)CCC4(C)C3CC(O)C12C (stereo not shown) [Claramine A01, 3-Spermino Isopropyl Deoxycholate] . Its MIC was 15

Entry CC(C)OC(=O)CCC(C)C1CCC2C3CCC4CC(NCCN(CCN)CCN)CCC4(C)C3CCC12C (stereo not shown) [Claramine E22] , MIC reported as 55

The value of MIC measured for the compound CC(C)OC(=O)CCC(C)C1CCC2C3C(O)CC4CC(NCCCNCCCCNCCCN)CCC4(C)C3CC(O)C12C (stereo not shown) [Claramine B12] turned out to be 62

Please fill in: MIC reported for CC(C)OC(=O)CCC(C)C1CCC2C3CCC4CC(NCCCN5CCN(CCCN)CC5)CCC4(C)C3CCC12C (stereo not shown) [Claramine E05] = 15

So, CC(C)OC(=O)CCC(C)C1CCC2C3C(O)CC4CC(NCCCNCCCCN)CCC4(C)C3CC(O)C12C (stereo not shown) [Claramine B14] ? Its MIC was 30

// field: MIC; key: CC(C)OC(=O)CCC(C)C1CCC2C3CCC4CC(NCCCNCCCNCCCN)CCC4(C)C3CC(O)C12C (stereo not shown) [Claramine A02] ; value = 15
